Quick reference for self-cleavage among some variants
B1: Twister Ribozyme (parent)
chain: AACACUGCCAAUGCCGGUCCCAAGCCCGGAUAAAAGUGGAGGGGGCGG

# Variants of: B1
# Assay Summary: self-cleavage, relative activity (ratio to wild type); higher = more cleavage; co-transcriptional
The reply should be a number, written without any unit.

**Query** Any idea what its self-cleavage is? The variant is A32U G45A
**Result** 0.823

**Query** Any idea what its self-cleavage is? The variant is U31A G42A
**Result** 0.349

**Query** Any idea what its self-cleavage is? The variant is G16C C27A
**Result** 0.684

**Query** Any idea what its self-cleavage is? The variant is A4U U31C
**Result** 0.0955

---
**Query** Any idea what its self-cleavage is? The variant is C5G C15U
**Result** 0.467

**Query** Any idea what its self-cleavage is? The variant is C20G A33U
**Result** 0.13

**Query** Any idea what its self-cleavage is? The variant is U37A G45C
**Result** 0.323

**Query** Any idea what its self-cleavage is? The variant is G24C A32U
**Result** 0.13

**Query** Any idea what its self-cleavage is? The variant is C21A G24C
**Result** 0.0911

**Query** Any idea what its self-cleavage is? The variant is U31G G45C
**Result** 0.653

**Query** Any idea what its self-cleavage is? The variant is `G38A`
**Result** 0.965
